Where do the numbers come from? From ChEMBL document CHEMBL1143954.

So I've got a bunch of compounds here, and I need their log10(EC50) values.
Target: Thyroid hormone receptor beta (Homo sapiens)
Sequence (P10828 whole entry): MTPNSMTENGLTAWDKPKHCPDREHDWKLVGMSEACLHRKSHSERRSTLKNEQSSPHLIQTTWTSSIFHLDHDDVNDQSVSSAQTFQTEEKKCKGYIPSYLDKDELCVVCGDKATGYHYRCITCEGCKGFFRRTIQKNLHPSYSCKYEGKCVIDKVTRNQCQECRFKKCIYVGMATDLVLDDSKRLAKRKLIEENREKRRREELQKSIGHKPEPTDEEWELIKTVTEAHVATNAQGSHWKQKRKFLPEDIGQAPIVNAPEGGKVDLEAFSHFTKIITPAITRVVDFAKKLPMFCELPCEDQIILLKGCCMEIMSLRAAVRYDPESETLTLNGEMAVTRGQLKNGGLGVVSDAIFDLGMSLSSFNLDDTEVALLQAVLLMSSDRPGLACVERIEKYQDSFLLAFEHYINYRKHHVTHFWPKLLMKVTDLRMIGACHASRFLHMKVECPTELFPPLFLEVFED
Parameter value (number): base-10 log of EC50 in nM.

| Compound | log10(EC50) |
| --- | --- |
| Cc1cc(Oc2c(I)cc(CC3NC(=O)NC3=O)cc2I)ccc1O (centres undefined) | 2.26 |
| O=C1NC(=O)C(Cc2cc(I)c(Oc3ccc(O)c(I)c3)c(I)c2)N1 (centres undefined) | 2.33 |
| CCc1cc(Oc2c(I)cc(CC3NC(=O)NC3=O)cc2I)ccc1O (centres undefined) | 1.43 |
| CC(C)c1cc(Oc2c(I)cc(CC3NC(=O)NC3=O)cc2I)ccc1O (centres undefined) | 1.76 |
| O=C1NC(=O)C(Cc2cc(I)c(Oc3ccc(O)c(Br)c3)c(I)c2)N1 (centres undefined) | 2.72 |

Dear reader, for each entry below, please note its log10(EC50).
1. O=C1NC(=O)C(Cc2cc(I)c(Oc3ccc(O)c(C4CC4)c3)c(I)c2)N1 (centres undefined)
2. COc1cc(Oc2c(I)cc(CC3NC(=O)NC3=O)cc2I)ccc1O (centres undefined)
3. CC(C)c1cc(Oc2c(Br)cc(CC3NC(=O)NC3=O)cc2Br)ccc1O (centres undefined)

1: 2.00; 2: 2.42; 3: 1.51

----------
Biological target: Thyroid hormone receptor beta (Homo sapiens)
Sequence (P10828 whole entry): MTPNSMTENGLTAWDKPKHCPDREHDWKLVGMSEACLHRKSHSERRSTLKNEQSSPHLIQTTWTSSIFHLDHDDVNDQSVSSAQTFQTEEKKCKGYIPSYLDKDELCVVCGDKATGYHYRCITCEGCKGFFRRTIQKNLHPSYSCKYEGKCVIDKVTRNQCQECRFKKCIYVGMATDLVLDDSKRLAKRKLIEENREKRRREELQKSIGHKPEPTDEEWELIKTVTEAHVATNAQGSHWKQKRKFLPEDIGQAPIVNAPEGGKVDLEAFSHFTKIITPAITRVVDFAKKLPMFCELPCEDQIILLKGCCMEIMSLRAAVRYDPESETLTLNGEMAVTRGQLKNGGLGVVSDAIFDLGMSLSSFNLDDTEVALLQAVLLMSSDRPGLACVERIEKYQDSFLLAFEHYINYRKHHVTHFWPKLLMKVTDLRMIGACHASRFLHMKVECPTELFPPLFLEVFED
So I've got a bunch of molecules here, and I need their log10(Kd) values.
Parameter value (number): base-10 log of Kd in µM.

Here is how some molecules turned out for log10(Kd).
| Molecule | System Under Test | log10(Kd) |
| --- | --- | --- |
| CCc1cc(Oc2c(I)cc(CC3NC(=O)NC3=O)cc2I)ccc1O (stereo not given) | Thyroid hormone receptor beta (Homo sapiens) | -1.74 |
| O=C1NC(=O)C(Cc2cc(I)c(Oc3ccc(O)c(C4CC4)c3)c(I)c2)N1 (stereo not given) | Thyroid hormone receptor beta (Homo sapiens) | -1.31 |
| O=C1NC(=O)C(Cc2cc(I)c(Oc3ccc(O)c(Br)c3)c(I)c2)N1 (stereo not given) | Thyroid hormone receptor beta (Homo sapiens) | -1.17 |

Dear reader, for each entry below, please note its log10(Kd).
1. COc1cc(Oc2c(I)cc(CC3NC(=O)NC3=O)cc2I)ccc1O (stereo not given)
2. CC(C)c1cc(Oc2c(I)cc(CC3NC(=O)NC3=O)cc2I)ccc1O (stereo not given)

1. -0.92
2. -2.77
